# experiment.description: Neurotoxicity assay: MTS viability of primary cortical neuronal cultures
# Format: cell-based, mouse
# measurement.conditions: BL6Jx129sv, mouse, primary cortical neuronal cultures, Neuronal cells, test compound 1 uM; read-out: Cytotoxicity (% viable at 1 and 10 uM)
measurement.label: viability at 4 days, 1 uM (%)
Reply numerically in %, unit not repeated.

Return reported viability at 4 days, 1 uM. Input compound: Oc1cccc2ccc(CN(Cc3ccccn3)Cc3c[nH]cn3)nc12
90

// fetch viability at 4 days, 1 uM given entry CC(=O)NCc1ccc2cccc(O)c2n1
100

Give the reported viability at 4 days, 1 uM for this compound. O=[N+]([O-])c1cccc(-c2cc(Cl)c3cccnc3c2O)c1
92

Please give the documented viability at 4 days, 1 uM of Oc1cccc2ccc(CN(Cc3ccccn3)Cc3nccs3)nc12
97

In one line, give reported viability at 4 days, 1 uM of the entry O/N=C/c1ccc2c(Cl)cc(Cl)c(O)c2n1 .
91

Look up and state reported viability at 4 days, 1 uM for Oc1cccc2ccc(CNCc3ccccn3)nc12
96

Fill in viability at 4 days, 1 uM for record Oc1c(-c2ccc(F)cc2)cc(Cl)c2cccnc12
103

---

# experiment.description: in vitro
# measurement.conditions: human, Cytotoxicity (% viable at 1 and 10 uM)
measurement.label: viability at 1 uM (%)
Could you give me the number in %? Just the number is fine.

Determine from records and report viability at 1 uM for O=c1c2cccc(O)c2ncn1Cc1cn2ccccc2n1
95

---

# experiment.description: Neurotoxicity assay: MTS viability of primary cortical neuronal cultures
# Assay type: cell-based, mouse
# measurement.conditions: BL6Jx129sv, mouse, primary cortical neuronal cultures, Neuronal cells, test compound 10 uM; read-out: Cytotoxicity (% viable at 1 and 10 uM)
# Protocol: Media was then replaced with Neurobasal media (Invitrogen Life Technologies) and B27 supplements (Invitrogen Life Technologies). Cultures were maintained at 37° C. in 5% CO2. […] Cell viability is determined using the MTS assay. […] 200 microlitre aliquots are measured with a spectrophotometer at 560 nm. […] On completion of the assay, 1/10 volume MTS was added per well of plate (i.e. 25 μl/250 μl). The plates were incubated at 37 C for 2 hrs, and then absorbance was read at 560 nm.
Classify: 1.0 when viability at 4 days, 10 uM is strictly less than 80%; 0.0 when viability at 4 days, 10 uM is not.

Some solved entries appear below for comparison.
Oc1c(-c2ccc(F)cc2)cc(Cl)c2cccnc12 | 1.0
CN(c1ccccn1)c1ccc2c(Cl)cc(Cl)c(O)c2n1 | 1.0
Oc1c(Br)cc(-c2ccccc2)c2cccnc12 | 0.0
CN1CCCC1CCn1cnc2c(O)c(Cl)cc(Cl)c2c1=O (stereo not shown) | 0.0
O=S(=O)(O)c1cc(I)c(O)c2ncccc12 | 1.0

Now take the following compound into account.
# strict comparison: is reported viability at 4 days, 10 uM < 80%? input = Oc1cccc2ccc(CN(Cc3ccccn3)Cc3c[nH]cn3)nc12
1.0

---

# experiment.description: Blood brain barrier penetration (brain:plasma ratio after IV dose)
# Type: in vivo
# measurement.conditions: 60 min post dose, nominal dose 5 mg/kg, male Swiss Outbred mice
Please note: B:P Ratio exactly at 0.07 is Not fulfilled. Only values below 0.07 get Fulfilled.

O=c1c2ccc(I)c(O)c2ncn1CC1CC1 | Fulfilled
Cc1noc(C)c1Cn1cnc2c(O)c(Cl)cc(Cl)c2c1=O | Not fulfilled
O=c1c2c(Cl)cc(Cl)c(O)c2ncn1Cc1ccccn1 | Not fulfilled
O=c1c2c(Cl)cc(Cl)c(O)c2ncn1C1CC1 | Not fulfilled
Oc1c(I)cc(Cl)c2cccnc12 | Not fulfilled

Now consider the entry below.
Determine if CCCc1cnc2c(O)c(I)ccn2c1=O shows B:P Ratio strictly lower than 0.07.
Fulfilled

---

# experiment.description: Neurotoxicity assay: MTS viability of primary cortical neuronal cultures
# Assay type: cell-based, mouse
# measurement.conditions: BL6Jx129sv, mouse, primary cortical neuronal cultures, Neuronal cells, test compound 10 uM; read-out: Cytotoxicity (% viable at 1 and 10 uM)
Response field label takes Met when viability at 4 days, 10 uM is strictly below 70% and Not met in all other cases.

Reference set (3 entries):
CN(CCc1ccccn1)Cc1ccc2cccc(O)c2n1 | Met
Cn1c(-n2cnc3c(O)c(Cl)cc(Cl)c3c2=O)nc2ccccc21 | Not met
Oc1cccc2ccc(CN(CCc3c[nH]cn3)Cc3nccs3)nc12 | Met

Decide: viability at 4 days, 10 uM of Oc1ccc(CCc2ccc3cccc(O)c3n2)cc1 strictly below 70%?
Not met

Quick check: does Cc1ccccc1-c1cc(-c2ccccc2C)c2cccnc2c1O have viability at 4 days, 10 uM under 70%?
Met

Would you kindly verify if viability at 4 days, 10 uM of COc1ccc(-c2cc(Cl)c3cccnc3c2O)cc1 is strictly less than 70%?
Met

viability at 4 days, 10 uM under 70%? Item: Oc1c(-c2ccsc2)cc(Cl)c2cccnc12
Met

Strictly below 70% in viability at 4 days, 10 uM? Cc1cnc2c(O)c(Cl)cc(Cl)c2n1
Not met

Regarding O=c1c2c(Cl)cc(Cl)c(O)c2ncn1CC1CCNCC1 , kindly confirm whether its viability at 4 days, 10 uM is beneath 70%.
Not met

---

# experiment.description: Blood brain barrier penetration (brain:plasma ratio after IV dose)
# Format: in vivo
# measurement.conditions: 5 min post dose, nominal dose 5 mg/kg, male Swiss Outbred mice
Could you mark each record YES if its B:P Ratio falls strictly under 0.2, and NO if it equals or exceeds it?

Worked examples, 3 compounds total:
O=c1c2c(Cl)cc(Cl)c(O)c2ncn1Cc1ccccn1 | YES
CCCc1cnc2c(O)c(I)ccn2c1=O | YES
O=c1c2ccc(I)c(O)c2ncn1CC1CC1 | YES

Is B:P Ratio of Cc1noc(C)c1Cn1cnc2c(O)c(Cl)cc(Cl)c2c1=O strictly below 0.2?
YES

Does the reported B:P Ratio of the following compound sit strictly below 0.2? Cn1cnc(CCNC(=O)c2ccc3c(Cl)cc(Cl)c(O)c3n2)c1
YES

Field: below-cutoff. Rule: recorded B:P Ratio strictly less than 0.2. Subject: CN(C)Cc1ccc2c(Cl)cc(Cl)c(O)c2n1.Cl [drawing 119]
NO

Does the reported B:P Ratio of O=c1c2c(Cl)cc(Cl)c(O)c2ncn1C1CC1 stay below 0.2?
NO

For this compound, is B:P Ratio lower than 0.2? O=c1c2c(Cl)cc(Cl)c(O)c2ncn1CC1CC1
YES

---

# experiment.description: in vitro
# measurement.conditions: human, Cytotoxicity (% viable at 1 and 10 uM)
measurement.label: viability at 10 uM (%)
Respond with the bare value in %.

Give viability at 10 uM for the following molecule: O=c1c2cccc(O)c2ncn1Cc1cn2ccccc2n1
98.4

---

# experiment.description: Neurotoxicity assay: MTS viability of primary cortical neuronal cultures
# Type: cell-based, mouse
# measurement.conditions: BL6Jx129sv, mouse, primary cortical neuronal cultures, Neuronal cells, test compound 10 uM; read-out: Cytotoxicity (% viable at 1 and 10 uM)
measurement.label: viability at 4 days, 10 uM
Provide the measurement as a number trailed by its unit.

Field: example entries. Status: answers known.
Oc1c(Cl)cc(Cl)c2cccnc12 | 75%
N#Cc1ccc2cccc(O)c2n1 | 97%
Oc1c(I)cc(-c2ccccc2F)c2cccnc12 | 34%
Oc1cccc2ccc(-c3ccccn3)nc12 | 75%

Hello, please tell me recorded viability at 4 days, 10 uM for this one: O=C(NCCc1ccccn1)c1ccc2cccc(O)c2n1
93%

---

# experiment.description: Neurotoxicity assay: MTS viability of primary cortical neuronal cultures
# Assay type: cell-based, mouse
# measurement.conditions: BL6Jx129sv, mouse, primary cortical neuronal cultures, Neuronal cells, test compound 1 uM; read-out: Cytotoxicity (% viable at 1 and 10 uM)
Recorded viability at 4 days, 1 uM, one value per entry.
Provide the reading as a plain figure in %.

O=C(Nc1nccs1)c1ccc2cccc(O)c2n1 | 100
O=c1[nH]cnc2c(O)cccc12 | 101
Oc1c(Br)cc(-c2cc(F)cc(F)c2)c2cccnc12 | 95
Cc1ccccc1-c1cc(-c2ccccc2C)c2cccnc2c1O | 93
Br.CCCn1cnc2c(O)c(Cl)cc(Cl)c2c1=O | 102

Next item in the queue.
Supply viability at 4 days, 1 uM value. Item: Cc1cccc(-c2ccc3cccc(O)c3n2)n1
91

---

# experiment.description: Neurotoxicity assay: MTS viability of primary cortical neuronal cultures
# Assay type: cell-based, mouse
# measurement.conditions: BL6Jx129sv, mouse, primary cortical neuronal cultures, Neuronal cells, test compound 10 uM; read-out: Cytotoxicity (% viable at 1 and 10 uM)
Binary label based on viability at 4 days, 10 uM with cut-off 80%: below gives label 1, not below gives label 0.

Take a look at these entries with their results.
Oc1c(-c2cc(Cl)c3cccnc3c2O)cc(Cl)c2cccnc12 | label 0
Cc1nccn1-c1ccc2cccc(O)c2n1 | label 0
CN(C)c1ccc(-c2cc(Cl)c3cccnc3c2O)cc1 | label 0
Br.O=c1c2c(Cl)cc(Cl)c(O)c2ncn1Cc1cccc(Cn2cnc3c(Cl)c(Cl)cc(Cl)c3c2=O)n1 | label 1
Oc1ccccc1-c1cc(Cl)c2cccnc2c1O | label 1

# next compound below
# strict comparison: is reported viability at 4 days, 10 uM < 80%? input = CC(Br)CCn1cnc2c(O)c(Cl)cc(Cl)c2c1=O (stereo not drawn)
label 1
